- System: HCC-2998 colon
- TEST_PROTOCOL: NCI-60 one-dose screen, 48 h
- SETUP_CONDITIONS: 10 µM unless noted
About 83,000 compounds went through this panel and 20% of them were active in at least one assay; those are over-represented in the sample as a whole. Activity calls are given as the source filed them. How the source made its calls: active means growth percent below 10; inactive means the rest.
Pick one and only one: active, inactive

Ask: I would be grateful if you could indicate the recorded call for `CCOC(=O)C#Cc1c(C(=O)OCC)nnn1[C@@H]1O[C@H](COC)[C@@H](OC)[C@H]1OC` .
Reply: inactive

Ask: I would be grateful if you could indicate the recorded call for `O=C(NCc1ccc(Cn2c(=O)sn(-c3ccccc3)c2=O)cc1)OCc1ccc2cccc(O)c2n1` .
Reply: active

Ask: I would be grateful if you could indicate the recorded call for `Cc1ccc2nc(-c3ccc(C(=O)N/N=C/c4ccc([N+](=O)[O-])cc4)cc3)[nH]c2c1` .
Reply: inactive

Ask: I would be grateful if you could indicate the recorded call for `COc1ccc2c(c1)CC[C@@H]1[C@@H]2CC[C@]2(C)c3c(cc(C#N)c4c3sc3ccccc34)C[C@@H]12` .
Reply: inactive

Ask: I would be grateful if you could indicate the recorded call for Nc1cccc(-c2ccc(COc3ccc(CC4SC(=O)NC4=O)cc3)cc2)c1 (configuration not stated) .
Reply: inactive

Ask: I would be grateful if you could indicate the recorded call for `COC(=O)/C(CCC=C(C)C)=C1\[C@@H](OC(C)=O)C[C@@]2(C)[C@H]1C/C(=N/O)[C@H]1[C@@]3(C)CC/C(=N\O)[C@@H](C)[C@@H]3CC[C@@]12C` .
Reply: inactive

Ask: I would be grateful if you could indicate the recorded call for `O=C1O[C@@H](c2ccccc2Cl)[C@@H]2c3cc4c(cc3CCN12)OCO4` .
Reply: inactive

Ask: I would be grateful if you could indicate the recorded call for Cc1oc(-c2ccc(Cl)cc2)nc1C1=NN(C(=O)c2ccncc2)C(c2ccccc2)C1 (configuration not stated) .
Reply: inactive

Ask: I would be grateful if you could indicate the recorded call for C=C1C(=O)O[C@@H]2C3C(=C(C)CC[C@@H]12)CC1O[C@]13C (some centres not stated) .
Reply: inactive

Ask: I would be grateful if you could indicate the recorded call for `N#Cc1c(-c2ccc(Br)cc2)nc2c(N=Nc3ccc(S(N)(=O)=O)cc3)c(N)nn2c1N` .
Reply: inactive

Ask: I would be grateful if you could indicate the recorded call for OC1CSSC1Cn1cnc2c(Nc3ccc(OCc4cccc(F)c4)c(Cl)c3)ncnc21 (configuration not stated) .
Reply: active

Ask: I would be grateful if you could indicate the recorded call for `CS(=O)(=O)Nc1cc(-c2ccc3ncnc(Nc4ccc5c(cnn5Cc5ccccc5F)c4)c3c2)cnc1Cl` .
Reply: inactive

Ask: I would be grateful if you could indicate the recorded call for `COc1cccc(CNc2c3ccccc3nc3ccccc23)c1OC` .
Reply: inactive

Ask: I would be grateful if you could indicate the recorded call for `O=Nc1ccc(NC(=O)Nc2ccc([N+](=O)[O-])cc2)cc1` .
Reply: inactive

Ask: I would be grateful if you could indicate the recorded call for `O=C(OCc1ccc2c(Cl)cc(Cl)c(O)c2n1)N1CCN(C(=O)c2cc3ccccc3[nH]2)CC1` .
Reply: inactive

Ask: I would be grateful if you could indicate the recorded call for COC1C(O)CC(OC2CC(OC3CC(O[C@@H]4C(=O)c5c(cc6cc(OC7CC(OC8CC(O)C(O)C(C)O8)C(O)C(C)O7)c(C)c(O)c6c5O)CC4[C@H](OC)C(=O)O)OC(C)C3O)OC(C)C2O)OC1C (some centres not stated) .
Reply: inactive

Ask: I would be grateful if you could indicate the recorded call for `CN(C)Cc1ccc(NC(=O)c2cncc(C#Cc3cnc(N)c4ncccc34)c2)cc1C(F)(F)F` .
Reply: active

Ask: I would be grateful if you could indicate the recorded call for `COc1ccc(-c2cn(Cc3cc4ccccc4s3)nn2)cc1OCCN1CCCCC1` .
Reply: inactive

Ask: I would be grateful if you could indicate the recorded call for `O=C(Nc1nc(Cl)nc(Nc2ccc(N3CCOCC3=O)cc2)n1)c1ccc(Cl)s1` .
Reply: inactive

Ask: I would be grateful if you could indicate the recorded call for `COc1ccc2c(O)c(/C=C3\N=Nc4ncccc43)oc2c1C[C@@H]1CCNC[C@H]1F` .
Reply: active

Ask: I would be grateful if you could indicate the recorded call for `CC(C)(C)CC(C)(C)Nc1c(-c2c(O)c3ccccc3oc2=O)nc2sc3ccccc3n12` .
Reply: inactive

Ask: I would be grateful if you could indicate the recorded call for `O=C1/C(=C/c2ccccn2)SC(=S)N1N1CCOCC1` .
Reply: inactive

Ask: I would be grateful if you could indicate the recorded call for `COC(=O)c1sccc1-c1cc(O)c(C(=O)Nc2ccccc2)s1` .
Reply: inactive

Ask: I would be grateful if you could indicate the recorded call for `N#Cc1c(-c2ccccc2)cc(-c2ccccc2)n(CCCCC(=O)NO)c1=O` .
Reply: inactive

Ask: I would be grateful if you could indicate the recorded call for COCCOC(C)C(/C=N/NC(N)=S)=N/NC(N)=S (configuration not stated) .
Reply: inactive

Ask: I would be grateful if you could indicate the recorded call for `CCOC(=O)/C=C1\S/C(=N\Nc2cc(=O)[nH]c3ccc(Br)cc23)N(c2ccccc2)C1=O` .
Reply: inactive

Ask: I would be grateful if you could indicate the recorded call for `CCCCCCCCCCOC(=O)c1nn(C(C)=O)c2cc(C)c(C)cc12` .
Reply: inactive

Ask: I would be grateful if you could indicate the recorded call for `N#Cc1nn(-c2cc(=O)[nH]c3ccc(Br)cc23)c(N)c1C#N` .
Reply: inactive

Ask: I would be grateful if you could indicate the recorded call for `Ic1ccc(Nc2nc3nonc3nc2Nc2ccc(I)cc2)cc1` .
Reply: active

Ask: I would be grateful if you could indicate the recorded call for `COc1ccc(N=C2NN=C(c3c[nH]c4ccccc34)CS2)cc1OC` .
Reply: inactive

Ask: I would be grateful if you could indicate the recorded call for `CNC(=O)c1cc(Oc2ccc3c(c2)sc2nc(-c4cc(C(F)(F)F)cc(C(F)(F)F)c4)cn23)ccn1` .
Reply: inactive

Ask: I would be grateful if you could indicate the recorded call for `CCOC(=O)C/C(=N\Nc1cc(=O)[nH]c2ccc(C)cc12)C(=O)OCC` .
Reply: inactive

Ask: I would be grateful if you could indicate the recorded call for Cc1ccc(C2CC(c3cccc(Nc4ccncc4)c3)=Nc3c(N)nc(N)nc3N2)cc1 (configuration not stated) .
Reply: inactive

Ask: I would be grateful if you could indicate the recorded call for `Clc1ccc(Nc2ncc(Cc3cccc(Cl)c3Cl)s2)cc1` .
Reply: inactive

Ask: I would be grateful if you could indicate the recorded call for `C=C(C)[C@@H]1CC[C@]2(CO)CC[C@]3(C)[C@H](CC[C@@H]4[C@@](C)(CCCN)[C@H](C(=C)C)CC[C@]43C)[C@@H]12` .
Reply: active

Ask: I would be grateful if you could indicate the recorded call for COc1ccc(-c2cc(C(=O)N3N=C(c4ccc(N)cc4)CC3c3ccc(Cl)cc3)c3ccccc3n2)cc1 (configuration not stated) .
Reply: inactive

Ask: I would be grateful if you could indicate the recorded call for `COc1ccc(CNc2ccc3nc(NC(=O)CN4CCCCCC4)sc3c2)cc1` .
Reply: inactive

###

- Tested on: UACC-257 melanoma
- TEST_PROTOCOL: NCI-60 one-dose screen, 48 h (100 = growth as untreated, 0 = no growth, -100 = all killed)
- SETUP_CONDITIONS: 10 µM unless noted
The panel holds about 83,000 compounds, 20% with a hit somewhere; the sample as a whole holds those more often.
Would you mind telling me the reported growth of each entry?
State the answer as a number, implicitly in %.

Record `O=C(/C=C/c1ccccc1)c1cccc2ccccc12` . Reported growth: 40.2

Record `Nc1nc2ccccc2c2c(=O)c3cc(Cl)ccc3sc12` . Reported growth: 99.1

Record `C/C(Cc1ccc(Cl)cc1)=C(\c1ccc(OCCN2CCCCCC2)cc1)c1ccc(OC(=O)c2ccccc2)cc1` . Reported growth: 45.2

Record `Cc1ccc(C(=O)c2ccc(CC(=O)N/N=C/c3cccc(O)c3O)n2C)cc1` . Reported growth: 89.7

Record `O=C(/C=C/c1ccccc1)c1ccc(-n2cc(CN3CCN(c4cc5c(cc4F)c(=O)c(C(=O)O)cn5C4CC4)CC3)nn2)cc1` . Reported growth: 91

Record Nc1ncnc2c1N=C(c1ccc(Cl)cc1)CC(c1cccc(Nc3ccnc4cc(Cl)ccc34)c1)N2 (centres undefined) . Reported growth: 105

Record `CC1=C2[C@@H](CC1)[C@]1(C)O[C@@](C3CCNCC3)(C[C@H]1OC(=O)CO)[C@H]2OC(=O)/C=C/c1ccccc1` . Reported growth: 85

Record `Nc1c(Br)cc2c(c1Br)Cc1cc([N+](=O)[O-])ccc1-2` . Reported growth: 93.5

Record `O=C1Nc2ccc(Cl)cc2/C1=C/c1ccc[nH]1` . Reported growth: 118
